Data credit: ChEMBL document CHEMBL1811814

Tested on: HT-29
Assay: Growth inhibition of human HT-29 cells assessed tumor cell growth at 10^-5 M
Format: functional
Set-up: scale not given: the % may be the effect or the level left
Quantity: Activity (%)
Give the number; % is assumed, so skip it.

## Input Need Activity of CC1=NN(c2cccc(Cl)c2)C(=O)/C1=C\c1coc2ccccc2c1=O , thanks.
## Output 114.92

## Input Entry O=C1/C(=C\c2cn(C(=O)c3c(Cl)cccc3Cl)c3ccccc23)c2ccccc2N1C(=O)c1c(Cl)cccc1Cl has what Activity?
## Output 108

## Input Quick check: Activity of C#CCN1C(=O)/C(=C\c2cn(CC#C)c3ccccc23)c2ccccc21 ?
## Output 101

## Input What does the data say about its Activity? Entry: CC1=NN(c2cccc(Cl)c2)C(=O)/C1=C\C=C\c1ccccc1
## Output -29.51

## Input Activity for O=C1C(=Cc2cn(Cc3ccccc3)c3ccccc23)C(=O)N(Cc2ccccc2)C(=O)N1Cc1ccccc1 ?
## Output 110.8
